# Measurement target: D(3) dopamine receptor (Homo sapiens)
# Experiment description: Displacement of [3H]raclopride from human recombinant dopamine D3 receptor expressed in CHO-K1 cells at 1 uM incubated for 120 mins by liquid scintillation counting analysis
# Format: cell-based
Outcome measure: inhibition (%)

Observe how each entry below is paired with its result.
- Line notation: "CCN1CCN(c2cccc3c2CCN3S(=O)(=O)c2ccccc2)CC1"
  Outcome measure: "inhibition"
  Readout unit: "%"
  Observed: 91
- Line notation: "CN1CCN(c2ccc3c(c2)CN(S(=O)(=O)c2ccccc2)C3)CC1"
  Outcome measure: "inhibition"
  Readout unit: "%"
  Observed: 41
- Line notation: "O=S(=O)(c1ccccc1)N1Cc2cccc(C3CCNCC3)c2C1"
  Outcome measure: "inhibition"
  Readout unit: "%"
  Observed: 16
- Line notation: "CCN1CCN(c2cccc3c2CN(S(=O)(=O)c2ccccc2)C3)CC1"
  Outcome measure: "inhibition"
  Readout unit: "%"
  Observed: 92
- Line notation: "O=S(=O)(c1ccccc1)N1Cc2ccc(C3CCN(C4CCC4)CC3)cc2C1"
  Outcome measure: "inhibition"
  Readout unit: "%"
  Observed: 24

A: CCCN1CCN(c2cccc3c2CCN3S(=O)(=O)c2ccccc2)CC1
B: O=S(=O)(c1ccccc1)N1CCc2c(C3CCNCC3)cccc21
C: O=S(=O)(c1ccccc1)N1Cc2ccc(N3CCN(C4CCC4)CC3)cc2C1
D: CCN1CCC(c2cccc3c2CCN3S(=O)(=O)c2ccccc2)CC1
// sort entries: inhibition, high to low Please list each label once, in the requested order.
A, D, C, B
(A: 97%, D: 58%, C: 34%, B: 6%)

P: CCCN1CCN(c2ccc3c(c2)CCN3S(=O)(=O)c2ccccc2)CC1
Q: O=S(=O)(c1ccccc1)N1CCc2cc(N3CCN(C4CCC4)CC3)ccc21
R: CN1CCC(c2cccc3c2CN(S(=O)(=O)c2ccccc2)C3)CC1
Give the ascending ranking of the items by reported inhibition. Please list each label once, in the requested order.
R, Q, P

###

# Measurement target: D(3) dopamine receptor (Homo sapiens)
# Experiment description: Displacement of [3H]raclopride from human recombinant dopamine D3 receptor expressed in CHO-K1 cells incubated for 120 mins by liquid scintillation counting analysis
pKi: −log10 of the molar value.
Outcome measure: pKi

Observe how each entry below is paired with its result.
- Line notation: "CN1CCN(c2cccc3c2CCN3S(=O)(=O)c2ccccc2)CC1"
  Outcome measure: "pKi"
  Observed: 6.76
- Line notation: "CN1CCC(c2ccc3c(c2)CCN3S(=O)(=O)c2ccccc2)CC1"
  Outcome measure: "pKi"
  Observed: 6.40
- Line notation: "O=S(=O)(c1ccccc1)N1Cc2cccc(N3CCNCC3)c2C1"
  Outcome measure: "pKi"
  Observed: 6.30
- Line notation: "O=S(=O)(c1ccccc1)N1CCc2cc(N3CCN(C4CCC4)CC3)ccc21"
  Outcome measure: "pKi"
  Observed: 6.68

a: O=S(=O)(c1ccccc1)N1Cc2cccc(N3CCN(C4CCC4)CC3)c2C1
b: CCN1CCN(c2cccc3c2CCN3S(=O)(=O)c2ccccc2)CC1
Record comparison, field pKi: mark the lower of a and b . I would appreciate it if you answered with the label of your choice.
a
(a: 6.28, b: 7.14)

###

# Measurement target: 5-hydroxytryptamine receptor 6 (Homo sapiens, UniProt P50406)
# Sequence (P50406 whole entry): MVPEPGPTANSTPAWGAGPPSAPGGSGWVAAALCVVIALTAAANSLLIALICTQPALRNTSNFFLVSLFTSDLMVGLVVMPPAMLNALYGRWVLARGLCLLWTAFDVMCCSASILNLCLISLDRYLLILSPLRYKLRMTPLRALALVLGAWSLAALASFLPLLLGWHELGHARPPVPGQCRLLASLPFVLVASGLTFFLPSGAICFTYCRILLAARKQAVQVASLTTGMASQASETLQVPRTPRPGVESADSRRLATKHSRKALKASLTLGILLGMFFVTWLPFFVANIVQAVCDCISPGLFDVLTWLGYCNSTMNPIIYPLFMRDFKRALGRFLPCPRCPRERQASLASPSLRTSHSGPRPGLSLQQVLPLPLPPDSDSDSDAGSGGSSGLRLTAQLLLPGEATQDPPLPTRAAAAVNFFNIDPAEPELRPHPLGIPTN
# Experiment description: Displacement of [3H]LSD from human recombinant 5-HT6 receptor expressed in CHO-K1 cells incubated for 3 hrs by scintillation counting analysis
pKi: −log10 of the molar value.
Outcome measure: pKi

Observe how each entry below is paired with its result.
- Line notation: "CCN1CCN(c2cccc3c2CN(S(=O)(=O)c2ccccc2)C3)CC1"
  pKi: 7.55
- Line notation: "O=S(=O)(c1ccccc1)N1CCc2cc(N3CCNCC3)ccc21"
  pKi: 7.70

A: CCN1CCN(c2cccc3c2CCN3S(=O)(=O)c2ccccc2)CC1
B: CN1CCC(c2ccc3c(c2)CN(S(=O)(=O)c2ccccc2)C3)CC1
C: CCCN1CCC(c2cccc3c2CCN3S(=O)(=O)c2ccccc2)CC1
// sort entries: pKi, high to low Please list each label once, in the requested order.
A, B, C

###

# Measurement target: 5-hydroxytryptamine receptor 6 (Homo sapiens, UniProt P50406)
# Experiment description: Displacement of [3H]LSD from human recombinant 5-HT6 receptor expressed in CHO-K1 cells at 1 uM incubated for 3 hrs by scintillation counting analysis
# Format: cell-based
Outcome measure: inhibition (%)

Observe how each entry below is paired with its result.
- Line notation: "O=S(=O)(c1ccccc1)N1CCc2cc(C3CCNCC3)ccc21"
  Outcome measure: "inhibition"
  Observed: 74
- Line notation: "CCN1CCN(c2cccc3c2CCN3S(=O)(=O)c2ccccc2)CC1"
  Outcome measure: "inhibition"
  Observed: 89
- Line notation: "CCN1CCN(c2cccc3c2CN(S(=O)(=O)c2ccccc2)C3)CC1"
  Outcome measure: "inhibition"
  Observed: 98
- Line notation: "O=S(=O)(c1ccccc1)N1CCc2ccc(C3CCNCC3)cc21"
  Outcome measure: "inhibition"
  Observed: 91
- Line notation: "CCCN1CCN(c2cccc3c2CN(S(=O)(=O)c2ccccc2)C3)CC1"
  Outcome measure: "inhibition"
  Observed: 98

A: CN1CCN(c2cccc3c2CCN3S(=O)(=O)c2ccccc2)CC1
B: CCN1CCC(c2cccc3c2CCN3S(=O)(=O)c2ccccc2)CC1
Record comparison, field inhibition: mark the lower of A and B . I would appreciate it if you answered with the label of your choice.
B
(B: 59%, A: 96%)

###

# Measurement target: D(3) dopamine receptor (Homo sapiens, UniProt P35462)
# Sequence (P35462 whole entry): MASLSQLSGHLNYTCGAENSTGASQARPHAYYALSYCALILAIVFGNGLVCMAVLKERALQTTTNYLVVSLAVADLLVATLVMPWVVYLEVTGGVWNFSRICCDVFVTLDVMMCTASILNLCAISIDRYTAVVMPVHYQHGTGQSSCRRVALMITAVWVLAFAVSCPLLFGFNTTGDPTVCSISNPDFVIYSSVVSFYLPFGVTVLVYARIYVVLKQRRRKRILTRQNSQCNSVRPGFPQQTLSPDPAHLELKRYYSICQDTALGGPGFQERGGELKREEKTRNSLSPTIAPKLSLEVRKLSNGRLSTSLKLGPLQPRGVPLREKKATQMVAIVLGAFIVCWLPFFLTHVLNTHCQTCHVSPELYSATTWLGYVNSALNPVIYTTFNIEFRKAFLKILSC
# Experiment description: Displacement of [3H]raclopride from human recombinant dopamine D3 receptor expressed in CHO-K1 cells incubated for 120 mins by liquid scintillation counting analysis
Outcome measure: Ki (nM)

Observe how each entry below is paired with its result.
- Line notation: "O=S(=O)(c1ccccc1)N1CCc2ccc(C3CCNCC3)cc21"
  Readout unit: "nM"
  Ki: 517
- Line notation: "CCCN1CCN(c2ccc3c(c2)CN(S(=O)(=O)c2ccccc2)C3)CC1"
  Readout unit: "nM"
  Ki: 103
- Line notation: "CN1CCN(c2cccc3c2CN(S(=O)(=O)c2ccccc2)C3)CC1"
  Readout unit: "nM"
  Ki: 160

1: CCCN1CCC(c2ccc3c(c2)CN(S(=O)(=O)c2ccccc2)C3)CC1
2: CCCN1CCC(c2cccc3c2CN(S(=O)(=O)c2ccccc2)C3)CC1
3: CN1CCN(c2ccc3c(c2)CCN3S(=O)(=O)c2ccccc2)CC1
4: CCN1CCN(c2ccc3c(c2)N(S(=O)(=O)c2ccccc2)CC3)CC1
5: CCN1CCN(c2ccc3c(c2)CCN3S(=O)(=O)c2ccccc2)CC1
Give the ascending ranking of the items by reported Ki. Please list each label once, in the requested order.
4, 5, 3, 2, 1
(4: 16 nM, 5: 48 nM, 3: 108 nM, 2: 212 nM, 1: 712 nM)

###

# Measurement target: Histamine H3 receptor (Homo sapiens)
# Sequence (Q9Y5N1 whole entry): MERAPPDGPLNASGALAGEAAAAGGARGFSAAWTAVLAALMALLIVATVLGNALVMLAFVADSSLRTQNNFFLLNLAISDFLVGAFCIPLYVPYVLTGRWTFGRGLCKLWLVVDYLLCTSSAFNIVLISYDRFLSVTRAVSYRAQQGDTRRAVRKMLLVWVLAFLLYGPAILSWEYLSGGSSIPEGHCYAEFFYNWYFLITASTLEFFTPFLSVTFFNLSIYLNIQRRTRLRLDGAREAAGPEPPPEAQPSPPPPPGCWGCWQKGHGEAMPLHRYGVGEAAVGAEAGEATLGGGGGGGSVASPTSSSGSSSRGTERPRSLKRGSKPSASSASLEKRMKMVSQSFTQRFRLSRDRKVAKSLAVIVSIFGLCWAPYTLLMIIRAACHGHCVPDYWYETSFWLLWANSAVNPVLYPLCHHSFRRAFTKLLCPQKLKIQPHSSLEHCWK
# Experiment description: Displacement of N-alpha-[methyl-3H]methylhistamine dihydrochloride from human recombinant histamine H3 receptor expressed in CHO-K1 cells incubated for 30 mins by liquid scintillation counting analysis
pKi: −log10 of the molar value.
Outcome measure: pKi

- Line notation: "CCN1CCC(c2ccc3c(c2)CN(S(=O)(=O)c2ccccc2)C3)CC1"
  Measurement target: "Histamine H3 receptor (Homo sapiens)"
  pKi: 6.52
- Line notation: "CCN1CCC(c2ccc3c(c2)CCN3S(=O)(=O)c2ccccc2)CC1"
  Measurement target: "Histamine H3 receptor (Homo sapiens)"
  pKi: 6.35
- Line notation: "CCN1CCN(c2ccc3c(c2)CCN3S(=O)(=O)c2ccccc2)CC1"
  Measurement target: "Histamine H3 receptor (Homo sapiens)"
  pKi: 6.55

1: O=S(=O)(c1ccccc1)N1Cc2ccc(N3CCN(C4CCC4)CC3)cc2C1
2: O=S(=O)(c1ccccc1)N1CCc2c(C3CCN(C4CCC4)CC3)cccc21
In the pair 1 and 2 , the larger recorded pKi belongs to which? I would appreciate it if you answered with the label of your choice.
2

###

# Measurement target: UniProt:P50406
# Experiment description: Displacement of [3H]LSD from human recombinant 5-HT6 receptor expressed in CHO-K1 cells at 1 uM incubated for 3 hrs by scintillation counting analysis
# Assay type: cell-based
Outcome measure: inhibition (%)

- Line notation: "O=S(=O)(c1ccccc1)N1CCc2c(C3CCNCC3)cccc21"
  inhibition [%]: 83

1: O=S(=O)(c1ccccc1)N1CCc2ccc(N3CCN(C4CCC4)CC3)cc21
2: CCN1CCC(c2ccc3c(c2)CCN3S(=O)(=O)c2ccccc2)CC1
3: O=S(=O)(c1ccccc1)N1Cc2ccc(C3CCN(C4CCC4)CC3)cc2C1
4: CN1CCC(c2ccc3c(c2)N(S(=O)(=O)c2ccccc2)CC3)CC1
5: CCCN1CCC(c2ccc3c(c2)CN(S(=O)(=O)c2ccccc2)C3)CC1
Give the ascending ranking of the items by reported inhibition. Please list each label once, in the requested order.
3, 5, 2, 1, 4
(3: -10%, 5: 26%, 2: 40%, 1: 60%, 4: 93%)

I: CCN1CCN(c2ccc3c(c2)CCN3S(=O)(=O)c2ccccc2)CC1
II: CN1CCN(c2ccc3c(c2)CN(S(=O)(=O)c2ccccc2)C3)CC1
III: CCN1CCC(c2ccc3c(c2)CN(S(=O)(=O)c2ccccc2)C3)CC1
Give the ascending ranking of the items by reported inhibition. Please list each label once, in the requested order.
III, II, I
